Measured values drawn from the supplement of paper PMC8728848 for this set.

target: GalNAc(b1-3)Gal(a1-6)Gal(b1-4)Glc; experiment: glycan array binding signal (z-score within array); higher = stronger binding; details: glycan notation: IUPAC condensed, linker removed
Only a selection was taken, and the strongest signals are over-represented in it overall.
As shown below, each of these binders has a reported glycan array binding signal (z-score) value.
Just the number, please.

These recorded examples may help you get a feel for the data.
INSERT INTO measurements (binder, result_type, value_measured) VALUES
  ('Cohesin-mDCIR (Macaca mulatta) (protein) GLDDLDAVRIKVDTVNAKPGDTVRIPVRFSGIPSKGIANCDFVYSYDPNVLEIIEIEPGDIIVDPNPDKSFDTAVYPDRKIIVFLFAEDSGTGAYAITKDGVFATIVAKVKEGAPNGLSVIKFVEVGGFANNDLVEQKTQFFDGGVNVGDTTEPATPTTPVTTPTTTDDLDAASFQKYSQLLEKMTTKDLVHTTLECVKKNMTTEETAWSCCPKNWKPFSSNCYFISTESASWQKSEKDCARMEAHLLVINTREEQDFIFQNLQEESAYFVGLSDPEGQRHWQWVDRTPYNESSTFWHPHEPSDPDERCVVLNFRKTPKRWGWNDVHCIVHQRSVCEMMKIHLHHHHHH', 'glycan array binding signal (z-score)', 2.77),
  ('AT3G44510(29) (Arabidopsis thaliana), F4J341 (protein) MEEHLQGRIKLHDGRYLAYKERGVPKDDAKFTIVLVHGFGSSKDMNFNVSQELVNEIGIYFVLYDRAGYGESDPNPKRSLKSEAYDVQELADGLEIGSRFYLIGISMGSYTVWSCLKHIPQRLAGVAMVAPVVNFRWPSIPKSLMPKDYRREVAKWSVWIANYFPGLLQWLVTQNMFSTTSMLEKNPVYFNDQDIEVLKHIKGFPMLTKEKLRERGVFGTLRSDFLVAFGDWDFDPADLPDPSLSGPEKGSSSVHIWQGYEDKVMPFQLQRCLCRKLPWIRYHEVPKGGHLIVHYDGICDAILKSLLLGEDLPMYKPKAVITEPA', 'glycan array binding signal (z-score)', -0.353),
  ('Gal 3 (Canis lupus) (protein) MADSFSLNDALSGSGNPNPQGWPGPWGNQPAGAGGYPGASYPGAYPGQAPPGGYPGQAPPGGYPGQAPPGGYPGQAPPGGYPGQAPPGGYPGQAPPGTYPGPTAPAYPGPTAPGTQPGQPSGPGAYPPPGQPSAPGAYPAAGPFGIPAGPLTVPYDLPLPGGVKPRMLITILGTVRPSANRLALDFKRGNDVAFHFNPRFNEDNKRVIVCNTKLDNIWGKEERQAAFPFESGKPFKIQVLVESDHFKVAVNDAHLLQYNHRMKNLPEISKLGISGDIDLTSASYAMI', 'glycan array binding signal (z-score)', -0.254),
  ('CD34 (Homo sapiens), P28906 (protein) MGSSHHHHHHSSGLVPRGSHMSTSLATSPTKPYTSSSPILSDIKAEIKCSGIREVKLTQGICLEQNKTSSCAEFKKDRGEGLARVLCGEEQADADAGAQVCSLLLAQSEVRPQCLLLVLANRTEISSKLQLMKKHQSDLKKLGILDFTEQDVASHQSYSQKT', 'glycan array binding signal (z-score)', -1.07),
  ('Cohesin-hDECTIN-1 (Homo sapiens) (protein) LDITSHHHHHHDDLDAVRIKVDTVNAKPGDTVRIPVRFSGIPSKGIANCDFVYSYDPNVLEIIEIEPGDIIVDPNPDKSFDTAVYPDRKIIVFLFAEDSGTGAYAITKDGVFATIVAKVKEGAPNGLSVIKFVEVGGFANNDLVEQKTQFFDGGVNVGDTTEPATPTTPVTTPTTTDDLDAASSSPCPPNWIIYEKSCYLFSMSLNSWDGSKRQCWQLGSNLLKIDSSNELGFIVKQVSSQPDNSFWIGLSRPQTEVPWLWEDGSTFSSNLFQIRTTATQENPSPNCVWIHVSVIYDQLCSVPSYSICEKKFM', 'glycan array binding signal (z-score)', 4.68);

# get_value(readout='glycan array binding signal (z-score)', item= AT5G01260(PC)(40) (Arabidopsis thaliana), Q9LFB0 (protein) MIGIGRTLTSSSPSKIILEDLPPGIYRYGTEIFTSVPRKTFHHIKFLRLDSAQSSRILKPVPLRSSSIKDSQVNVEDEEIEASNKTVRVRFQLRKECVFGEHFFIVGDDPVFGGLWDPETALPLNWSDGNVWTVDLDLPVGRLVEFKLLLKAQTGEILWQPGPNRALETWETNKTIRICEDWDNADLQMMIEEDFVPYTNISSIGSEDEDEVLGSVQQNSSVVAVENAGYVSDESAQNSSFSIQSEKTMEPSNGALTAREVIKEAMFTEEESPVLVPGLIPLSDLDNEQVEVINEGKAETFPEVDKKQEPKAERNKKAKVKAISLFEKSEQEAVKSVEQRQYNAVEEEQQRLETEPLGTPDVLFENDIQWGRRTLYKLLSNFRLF )
-0.39

Entry under review: pilr alpha (protein) MLYGVTQPKHLSASMGGSVEIPFSFYYPWELATAPDVRISWRRGHFHRQSFYSTRPPSIHKDYVNRLFLNWTEGQKSGFLRISNLQKQDQSVYFCRVELDTRSSGRQQWQSIEGTKLSIT . Reported glycan array binding signal (z-score)?
-0.342

Suppose we examine the binder HML-Native (Hypnea musciformis), P84871 (protein) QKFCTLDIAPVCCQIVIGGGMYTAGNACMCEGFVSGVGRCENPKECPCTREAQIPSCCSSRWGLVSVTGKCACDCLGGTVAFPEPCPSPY ; what glycan array binding signal (z-score) value has been reported?
-0.345

Fill in the blank: the reported glycan array binding signal (z-score) of RVL (Remusatia vivipara), B5LYJ9 (protein) MAKLLLFLLPAILGLLVPRSAVALGTNYLLSGQTLDTEGHLKNGDFDLVMQDDCNLVLYNGNWQSNTANNGRDCKLTLTDYGELVIKNGDGSTVWKSGAQSVKGNYAAVVHPDGRLVVLGPSVFKIDPWVRGLNSLRFRNIPFTNNLLFSGQVLYGDGRLTAKNHQLVMQGDCNLVLYGGKYGWQSNTHGNGEHCFLRLNHKGELIIKDDDFKTIWSSRSSSKQGEYVLILQDDGFGVIYGPAIFETSSKRSIAAS is ____.
-0.17
